Tested on: human colorectal carcinoma cell line HT29
test-summary: MTS cell viability assay, HT-29
Assay type: cell-based
condition-parameters: HT-29, from dose-response curves (FIG. 4, FIG. 5); read-out: concentration inhibiting cell growth by 50% (IC50), molar basis
metric: IC50 (µM)

(A) C/C=C(/C)C(=O)Oc1c(OC)c(OC)cc2c1-c1c(cc(OC)c(OC)c1OC)C[C@](C)(O)[C@@H](C)C2
(B) COc1cc2c(c(OC)c1OC)-c1c(cc3c(c1OC)OCO3)C[C@H](C)[C@H](C)C2
Which has the higher IC50, A or B ? // caller expects the label of the chosen entry
A
(A: 696 µM, B: 43 µM)

Measured values drawn from patent US20120052142A1 for this set.
